PROTOCOL SUMMARY: Plasma pharmacokinetics (LC–MS/MS, non-compartmental analysis)
Format: in vivo, Japanese patients
ASSAY SETUP: human, plasma, oral, across all dose levels and dosing schedules; Day 1, Day 8, Day 28 of Cycle 1; read-out: Median Tmax
Experimental: The PK parameters were determined by non-compartmental analysis using Phoenix WinNonlin 6.2® (Pharsight, Mountain View, CA).
MEASUREMENT TYPE: Tmax

Enquiry: What Tmax value was documented for this molecule, Cn1c(=O)n(-c2ccc(C(C)(C)C#N)cc2)c2c3cc(-c4cnc5ccccc5c4)ccc3ncc21 ?
Return: ~4 h

---

PROTOCOL SUMMARY: Plasma pharmacokinetics (LC–MS/MS, non-compartmental analysis)
Format: in vivo, Japanese patients
ASSAY SETUP: human, plasma, oral, 400 mg, Cycle 1 Day 1; 400 mg qd; n = 2; read-out: AUCinf, Median
MEASUREMENT TYPE: AUC(0-inf) (ng·h/mL)
Report the value in ng·h/mL with no unit label.

Enquiry: What AUC(0-inf) value was documented for this molecule, Cn1c(=O)n(-c2ccc(C(C)(C)C#N)cc2)c2c3cc(-c4cnc5ccccc5c4)ccc3ncc21 [BEZ235] ?
Return: 978

---

PROTOCOL SUMMARY: Plasma pharmacokinetics (LC–MS/MS, non-compartmental analysis)
Format: in vivo, Japanese patients
ASSAY SETUP: human, plasma, oral, 800 mg, Cycle 1 Day 1; 800 mg qd; n = 3; read-out: Cmax, Median
MEASUREMENT TYPE: Cmax (ng/mL)
Report the value in ng/mL with no unit label.

Enquiry: What Cmax value was documented for this compound, Cn1c(=O)n(-c2ccc(C(C)(C)C#N)cc2)c2c3cc(-c4cnc5ccccc5c4)ccc3ncc21 ?
Return: 154

---

PROTOCOL SUMMARY: Plasma pharmacokinetics (LC–MS/MS, non-compartmental analysis)
Assay type: in vivo, Japanese patients
ASSAY SETUP: human, plasma, oral, 400 mg, Cycle 1 Day 8; 400 mg qd; n = 2; read-out: AUCinf, Median
MEASUREMENT TYPE: AUC(0-inf) (ng·h/mL)
Report the value in ng·h/mL with no unit label.

Enquiry: What AUC(0-inf) value was documented for this molecule, Cn1c(=O)n(-c2ccc(C(C)(C)C#N)cc2)c2c3cc(-c4cnc5ccccc5c4)ccc3ncc21 [BEZ235] ?
Return: 14300

---

PROTOCOL SUMMARY: Plasma pharmacokinetics (LC–MS/MS, non-compartmental analysis)
Type: in vivo, Japanese patients
ASSAY SETUP: human, plasma, oral, 400 mg, Cycle 1 Day 8; 400 mg bid; n = 6; read-out: Tmax, Median
MEASUREMENT TYPE: Tmax (h)
Report the value in h with no unit label.

Enquiry: What Tmax value was documented for this compound, Cn1c(=O)n(-c2ccc(C(C)(C)C#N)cc2)c2c3cc(-c4cnc5ccccc5c4)ccc3ncc21 ?
Return: 4

---

PROTOCOL SUMMARY: Plasma pharmacokinetics (LC–MS/MS, non-compartmental analysis)
Format: in vivo, Japanese patients
ASSAY SETUP: human, plasma, oral, 1200 mg, Cycle 1 Day 1; 1200 mg qd; n = 1; read-out: AUCinf, Median
MEASUREMENT TYPE: AUC(0-inf) (ng·h/mL)
Report the value in ng·h/mL with no unit label.

Enquiry: What AUC(0-inf) value was documented for this compound, Cn1c(=O)n(-c2ccc(C(C)(C)C#N)cc2)c2c3cc(-c4cnc5ccccc5c4)ccc3ncc21 ?
Return: 2290

---

PROTOCOL SUMMARY: Plasma pharmacokinetics (LC–MS/MS, non-compartmental analysis)
Assay type: in vivo, Japanese patients
ASSAY SETUP: human, plasma, oral, 1200 mg, Cycle 1 Day 8; 1200 mg qd; n = 4; read-out: Tmax, Median
Method: The PK parameters were determined by non-compartmental analysis using Phoenix WinNonlin 6.2® (Pharsight, Mountain View, CA).
MEASUREMENT TYPE: Tmax

Enquiry: What Tmax value was documented for this molecule, Cn1c(=O)n(-c2ccc(C(C)(C)C#N)cc2)c2c3cc(-c4cnc5ccccc5c4)ccc3ncc21 ?
Return: 4 h

---

PROTOCOL SUMMARY: Plasma pharmacokinetics (LC–MS/MS, non-compartmental analysis)
Format: in vivo, Japanese patients
ASSAY SETUP: human, plasma, oral, 1000 mg, Cycle 1 Day 8; 1000 mg qd; n = 3; read-out: AUC0 − 24, Median
MEASUREMENT TYPE: AUC(0-t) (ng·h/mL)
Report the value in ng·h/mL with no unit label.

Enquiry: What AUC(0-t) value was documented for this compound, Cn1c(=O)n(-c2ccc(C(C)(C)C#N)cc2)c2c3cc(-c4cnc5ccccc5c4)ccc3ncc21 ?
Return: 8260

---

PROTOCOL SUMMARY: Plasma pharmacokinetics (LC–MS/MS, non-compartmental analysis)
Assay type: in vivo, Japanese patients
ASSAY SETUP: human, plasma, oral, 400 mg, Cycle 1 Day 8; 400 mg bid; n = 6; read-out: Cmax, Median
MEASUREMENT TYPE: Cmax (ng/mL)
Report the value in ng/mL with no unit label.

Enquiry: What Cmax value was documented for this compound, Cn1c(=O)n(-c2ccc(C(C)(C)C#N)cc2)c2c3cc(-c4cnc5ccccc5c4)ccc3ncc21 ?
Return: 1050

---

PROTOCOL SUMMARY: Plasma pharmacokinetics (LC–MS/MS, non-compartmental analysis)
Format: in vivo, Japanese patients
ASSAY SETUP: human, plasma, oral, 1200 mg, Cycle 1 Day 28; 1200 mg qd; n = 1; read-out: AUC0 − 24, Median
MEASUREMENT TYPE: AUC(0-t) (ng·h/mL)
Report the value in ng·h/mL with no unit label.

Enquiry: What AUC(0-t) value was documented for this compound, Cn1c(=O)n(-c2ccc(C(C)(C)C#N)cc2)c2c3cc(-c4cnc5ccccc5c4)ccc3ncc21 [BEZ235] ?
Return: 43400

---

PROTOCOL SUMMARY: Plasma pharmacokinetics (LC–MS/MS, non-compartmental analysis)
Format: in vivo, Japanese patients
ASSAY SETUP: human, plasma, oral, 1400 mg, Cycle 1 Day 28; 1400 mg qd; n = 3; read-out: AUCinf, Median
MEASUREMENT TYPE: AUC(0-inf) (ng·h/mL)
Report the value in ng·h/mL with no unit label.

Enquiry: What AUC(0-inf) value was documented for this molecule, Cn1c(=O)n(-c2ccc(C(C)(C)C#N)cc2)c2c3cc(-c4cnc5ccccc5c4)ccc3ncc21 ?
Return: 30700

---

PROTOCOL SUMMARY: Plasma pharmacokinetics (LC–MS/MS, non-compartmental analysis)
Format: in vivo, Japanese patients
ASSAY SETUP: human, plasma, oral, 800 mg, Cycle 1 Day 28; 800 mg qd; n = 3; read-out: Cmax, Median
MEASUREMENT TYPE: Cmax (ng/mL)
Report the value in ng/mL with no unit label.

Enquiry: What Cmax value was documented for this molecule, Cn1c(=O)n(-c2ccc(C(C)(C)C#N)cc2)c2c3cc(-c4cnc5ccccc5c4)ccc3ncc21 ?
Return: 1980

---

PROTOCOL SUMMARY: Plasma pharmacokinetics (LC–MS/MS, non-compartmental analysis)
Assay type: in vivo, Japanese patients
ASSAY SETUP: human, plasma, oral, 1000 mg, Cycle 1 Day 1; 1000 mg qd; n = 6; read-out: AUClast, Median
MEASUREMENT TYPE: AUC(0-t)
Answers without a unit are incomplete; give the number and then its unit.

Enquiry: What AUC(0-t) value was documented for this compound, Cn1c(=O)n(-c2ccc(C(C)(C)C#N)cc2)c2c3cc(-c4cnc5ccccc5c4)ccc3ncc21 [BEZ235] ?
Return: 4490 ng·h/mL

---

PROTOCOL SUMMARY: Plasma pharmacokinetics (LC–MS/MS, non-compartmental analysis)
Type: in vivo, Japanese patients
ASSAY SETUP: human, plasma, oral, 400 mg, Cycle 1 Day 28; 400 mg qd; n = 3; read-out: Tmax, Median
MEASUREMENT TYPE: Tmax (h)
Report the value in h with no unit label.

Enquiry: What Tmax value was documented for this molecule, Cn1c(=O)n(-c2ccc(C(C)(C)C#N)cc2)c2c3cc(-c4cnc5ccccc5c4)ccc3ncc21 ?
Return: 4

---

PROTOCOL SUMMARY: Plasma pharmacokinetics (LC–MS/MS, non-compartmental analysis)
Type: in vivo, Japanese patients
ASSAY SETUP: human, plasma, oral, 1400 mg, Cycle 1 Day 28; 1400 mg qd; n = 4; read-out: AUClast, Median
MEASUREMENT TYPE: AUC(0-t)
Answers without a unit are incomplete; give the number and then its unit.

Enquiry: What AUC(0-t) value was documented for this compound, Cn1c(=O)n(-c2ccc(C(C)(C)C#N)cc2)c2c3cc(-c4cnc5ccccc5c4)ccc3ncc21 [BEZ235] ?
Return: 18300 ng·h/mL

---

PROTOCOL SUMMARY: Plasma pharmacokinetics (LC–MS/MS, non-compartmental analysis)
Type: in vivo, Japanese patients
ASSAY SETUP: human, plasma, oral, 400 mg, Cycle 1 Day 1; 400 mg bid; n = 7; read-out: Tmax, Median
MEASUREMENT TYPE: Tmax
Answers without a unit are incomplete; give the number and then its unit.

Enquiry: What Tmax value was documented for this compound, Cn1c(=O)n(-c2ccc(C(C)(C)C#N)cc2)c2c3cc(-c4cnc5ccccc5c4)ccc3ncc21 [BEZ235] ?
Return: 6 h

Origin of the recorded values: paper PMC6394493
